The origin of these recorded values is ChEMBL document CHEMBL4689842.

test system: HEK-293T; assay: Multiplex assay against HEK293T; assay type: toxicity, cell-based; settings: human, 48 h, 10 µM, compound concentration 10 uM, replicate 2
ASSAY_ENDPOINT: Population Apoptotic (%)
Express your answer in %, writing the number without its unit.

* Oc1cccc(-c2nc(N3CCOCC3)c3oc4ncccc4c3n2)c1 [PI-103] | 78

Input line: Note down Population Apoptotic (%) recorded for c1ccc(-c2oc3ncnc(NC[C@@H]4CCCO4)c3c2-c2ccccc2)cc1
Output line: 48

Input line: Note down Population Apoptotic (%) recorded for N#Cc1cccc(C(=O)Nc2cc(-c3ccccc3)nn2-c2ccccc2)c1
Output line: 63

Input line: Note down Population Apoptotic (%) recorded for CC(C)[C@H](CO)Nc1nc(Nc2cccc(Cl)c2)c2ncn(C(C)C)c2n1 [PURVALANOLA]
Output line: 89

Input line: Note down Population Apoptotic (%) recorded for CC(C)c1cc(Nc2nc(N3CCC[C@H](N)C3)ncc2C(N)=O)cc(C(C)C)n1
Output line: 92
